tested on: SK-OV-3 ovarian; assay: NCI-60 one-dose screen, 48 h; conditions: 10 µM unless noted
Compounds without any hit were thinned out: in the full panel of roughly 83,000, 20% have a hit. The source made the active and inactive calls. Rule for the calls: active = growth percent below 10; inactive = the rest.
I would appreciate it if you answered using one of these outcomes: label 1 (active), label 0 (inactive)

# count of solved cases: 5
Compound: CN1CC(CNC(=O)OCc2ccccc2)CC2c3cccc4c3c(cn4C)CC21 (configuration not stated)
Assigned category: label 0

Compound: ClC1=C(Cl)C(Cl)(C2(Cl)C(Cl)=C(Cl)C(Cl)=C2Cl)C(Cl)=C1Cl
Assigned category: label 0

Compound: CN(C)C(=O)Oc1ccccc1
Assigned category: label 0

Compound: CCn1cnc2c(Nc3cccc(Cl)c3)nc(N[C@@H]3CCCC[C@@H]3N)nc21
Assigned category: label 0

Compound: CN(C)CCCOc1ccc2c(c1)c(C(=O)C(=O)NCCO)cn2Cc1ccccc1
Assigned category: label 0

Please turn your attention to the following entry.
Ask: Entry Nc1ccc2c(c1)oc1ccccc12 : call = ?
Reply: label 0
